System: S. aureus (ATCC 29213)
Experiment: Zone of inhibition screen, 96 well agar array format
Format: cell-based
Design: scale not given here
Details: zone of inhibition relative to 1 mg/ml p-chlorobiphenylvancomycin
Task for the reader: assign each of the following compounds its reported zone score, S. aureus ATCC 29213.
Numbers only.

Observe how each entry below is paired with its result.
{"compound": "CC1OC(OC2C(Oc3c4cc5cc3Oc3ccc(cc3Cl)C(O)C3NC(=O)C(NC(=O)C5NC(=O)C(CC(N)=O)NC(=O)C(NC(=O)C(=O)c5ccco5)C(O)c5ccc(c(Cl)c5)O4)c4ccc(O)c(c4)-c4c(O)cc(O)cc4C(C(=O)O)NC3=O)OC(CO)C(O)C2O)CC(C)(NCc2ccc(-c3ccc(Cl)cc3)cc2)C1O (stereo not drawn)", "assayed-system": "S. aureus (ATCC 29213)", "value-reported": 2}
{"compound": "CC1OC(OC2C(Oc3c4cc5cc3Oc3ccc(cc3Cl)C(O)C3NC(=O)C(NC(=O)C5NC(=O)C(CC(N)=O)NC(=O)C(NC(=O)C(CCC(N)=O)NC(=O)CNC(=O)OCc5ccccc5)C(O)c5ccc(c(Cl)c5)O4)c4ccc(O)c(c4)-c4c(O)cc(O)cc4C(C(=O)O)NC3=O)OC(CO)C(O)C2O)CC(C)(NCc2ccc(-c3ccc(Cl)cc3)cc2)C1O (stereo not drawn)", "assayed-system": "S. aureus (ATCC 29213)", "value-reported": 2}

Input line: Endpoint output: zone score, S. aureus ATCC 29213 of CC(=O)NC(Cc1cnc[nH]1)C(=O)NC1C(=O)NC(CC(N)=O)C(=O)NC2C(=O)NC3C(=O)NC(C(=O)NC(C(=O)O)c4cc(O)cc(O)c4-c4cc3ccc4O)C(O)c3ccc(c(Cl)c3)Oc3cc2cc(c3OC2OC(CO)C(O)C(O)C2OC2CC(C)(NCc3ccc(-c4ccc(Cl)cc4)cc3)C(O)C(C)O2)Oc2ccc(cc2Cl)C1O (mixture of isomers) . Value?
Output line: 2

###

Test system: E. Faecalis CL 4877
Test: MIC determination in BHI media, OD600
Assay type: cell-based
Settings: BHI + 0.1% casamino acids, 18 hours at 37° C., ≧90% OD600 inhibition
Method: Logarithmically growing cells were diluted to approximately 5×10^5 CFU/ml and subjected to test compounds solubilized and serially diluted in DMSO. […] After 18 hours at 37° C., the OD600 was determined by reading the ninety-six well microtiter plates on a microplate reader. For a given concentration, an MIC determination was made if: […]
Kindly supply the reported MIC E. faecalis CL 4877 values for the records listed here.

{"compound": "C[C@H]1O[C@H](O[C@H]2[C@H](Oc3c4cc5cc3Oc3ccc(cc3Cl)[C@@H](O)[C@@H](NC(=O)[C@H](N)Cc3cccnc3)C(=O)N[C@@H](CC(N)=O)C(=O)N[C@H]5C(=O)N[C@H]3C(=O)N[C@H](C(=O)N[C@@H](C(=O)O)c5cc(O)cc(O)c5-c5cc3ccc5O)[C@H](O)c3ccc(c(Cl)c3)O4)O[C@H](CO)[C@@H](O)[C@@H]2O)C[C@@](C)(NCc2ccc(-c3ccc(Cl)cc3)cc2)[C@H]1O", "outcome-measure": "MIC E. faecalis CL 4877", "value-reported": "25 µg/mL"}
{"compound": "C[C@H](OC(C)(C)C)[C@@H](N)C(=O)N[C@H]1C(=O)N[C@@H](CC(N)=O)C(=O)N[C@H]2C(=O)N[C@H]3C(=O)N[C@H](C(=O)N[C@@H](C(=O)O)c4cc(O)cc(O)c4-c4cc3ccc4O)[C@H](O)c3ccc(c(Cl)c3)Oc3cc2cc(c3O[C@@H]2O[C@H](CO)[C@@H](O)[C@H](O)[C@H]2O[C@@H]2C[C@@](C)(NCc3ccc(-c4ccc(Cl)cc4)cc3)[C@@H](O)[C@@H](C)O2)Oc2ccc(cc2Cl)[C@H]1O", "outcome-measure": "MIC E. faecalis CL 4877", "value-reported": "25 µg/mL"}

# input for lookup
Input line: Need MIC E. faecalis CL 4877 of C[C@H]1O[C@H](O[C@H]2[C@H](Oc3c4cc5cc3Oc3ccc(cc3Cl)[C@@H](O)[C@@H](NC(=O)[C@@H]3CC(OC(C)(C)C)CN3)C(=O)N[C@@H](CC(N)=O)C(=O)N[C@H]5C(=O)N[C@H]3C(=O)N[C@H](C(=O)N[C@@H](C(=O)O)c5cc(O)cc(O)c5-c5cc3ccc5O)[C@H](O)c3ccc(c(Cl)c3)O4)O[C@H](CO)[C@@H](O)[C@@H]2O)C[C@@](C)(NCc2ccc(-c3ccc(Cl)cc3)cc2)[C@H]1O (stereo partly drawn) , thanks.
Output line: 25 µg/mL
